assayOverview: Determination of inhibitor concentration in mouse plasma after intraperitoneal and oral dosing
Type: in vivo
testParameters: female, PO, 25 mg/kg, vehicle PEG400:H2O pH 2.3 30:70
Exercise: state measured AUC(0-t) for each of the compounds provided.

compound=CNC(=O)c1ccccc1Nc1ccc2c(/C=C/c3ccccn3)n[nH]c2c1 measuredquantity=AUC(0-t) resultvalue="> 14800 ng·h/mL"
compound=O=C(Nc1cccc(Oc2ccc3c(/C=C/c4c[nH]cn4)n[nH]c3c2)c1)c1ccccc1 measuredquantity=AUC(0-t) resultvalue="490 ng·h/mL"
compound=C=CCn1nc(C)cc1C(=O)Nc1cccc(C(=O)c2ccc3c(/C=C/c4ccccn4)n[nH]c3c2)c1 measuredquantity=AUC(0-t) resultvalue="> 22500 ng·h/mL"
compound="Cn1ccnc1C(=O)Nc1cccc(Oc2ccc3c(/C=C/c4ccccn4)n[nH]c3c2)c1 [Example 31(e)]" measuredquantity=AUC(0-t) resultvalue="> 30300 ng·h/mL"
compound=CCn1nc(C)cc1C(=O)Nc1cccc(Oc2ccc3c(/C=C/c4cn(C)c(C)n4)n[nH]c3c2)c1 measuredquantity=AUC(0-t) resultvalue="> 245000 ng·h/mL"

Take each entry in turn and give its AUC(0-t).
1. C#CCNC(=O)c1ccccc1Nc1ccc2c(/C=C/c3ccccn3)n[nH]c2c1
2. O=C(NOCC1CC1)c1ccccc1Sc1ccc2c(/C=C/c3ccccn3)n[nH]c2c1 [Example 35(s)]

A)
["> 31000 ng·h/mL", "7420 ng·h/mL"]

---

targetUnderTest: CDK2/Cyclin A (Homo sapiens)
assayOverview: CDK2/Cyclin A assay ([32P]ATP, Rb fragment)
Assay type: biochemical
testParameters: Table 2
pKi: −log10 of the molar value.
Threshold rule: pKi greater than or equal to 7 is Met; below that, Not met.

Would you please look over these solved cases?
chemicalsmiles=CSc1cc(O)ccc1-c1ccc2c(-c3nc4ccccc4[nH]3)n[nH]c2c1 cat=Met
chemicalsmiles=Cc1cc(O)cc(C)c1-c1ccc2c(-c3nc4ccccc4[nH]3)n[nH]c2c1 cat="Not met"
chemicalsmiles=Cc1cc(O)c(Cl)cc1-c1ccc2c(-c3nc4ccccc4[nH]3)n[nH]c2c1 cat=Met
chemicalsmiles=COc1cc(O)ccc1-c1ccc2c(-c3nc4c(SCCO)cccc4[nH]3)n[nH]c2c1 cat="Not met"

Q) Quick check, pKi >= 7? `COc1cc(O)ccc1-c1ccc2c(-c3nc4cc(N(C)C)ccc4[nH]3)n[nH]c2c1`
A) Not met

---

assayOverview: Determination of inhibitor concentration in mouse plasma after intraperitoneal and oral dosing
Type: in vivo
testParameters: PO, 50 mg/kg, vehicle PEG400:H2O pH 2.3 30:70
Exercise: state measured plasma half-life (T1/2) for each of the compounds provided.
Give bare numbers, in h.

# example entries with known answers
compound="CCOCCNC(=O)c1ccccc1Sc1ccc2c(/C=C/c3ccccn3)n[nH]c2c1 [Example 35(z)]" unitspec=h resultvalue=1.6
compound=CCCNC(=O)c1ccccc1Sc1ccc2c(/C=C/c3ccccn3)n[nH]c2c1 unitspec=h resultvalue=0.9
compound=Cn1nc(C(C)(C)C)cc1C(=O)Nc1cccc(C(=O)c2ccc3c(/C=C/c4ccccn4)n[nH]c3c2)c1 unitspec=h resultvalue=1.9
compound=CCn1nc(C)cc1C(=O)Nc1cccc(C(=O)c2ccc3c(/C=C/c4ccccn4)n[nH]c3c2)c1 unitspec=h resultvalue=3.4
compound=O=C(c1cccc(NC(=O)c2ccc(Cl)s2)c1)c1ccc2c(/C=C/c3ccccn3)n[nH]c2c1 unitspec=h resultvalue=1.7

Take each entry in turn and give its plasma half-life (T1/2).
1. Cc1cc(C(=O)Nc2cccc(Oc3ccc4c(/C=C/c5ccccn5)n[nH]c4c3)c2)nn1C
2. Cn1cccc1C(=O)NNC(=O)c1ccccc1Sc1ccc2c(/C=C/c3ccccn3)n[nH]c2c1 [Example 35(e)]
3. C#CCNC(=O)c1ccccc1Sc1ccc2c(/C=C/c3ccccn3)n[nH]c2c1

A)
[1.0, 0.9, 0.9]
